testTarget: T1, GST-Abp1 SH3 domain (S. cerevisiae), P15891
T1 chain: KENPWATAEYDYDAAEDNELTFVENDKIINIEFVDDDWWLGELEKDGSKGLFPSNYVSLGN
measurementProtocol: SPR
settings: modification not given
quantityName: Kd

| binder | Kd |
| --- | --- |
| NQPDLPPRKIMIP [YBR239C peptide …] | > 100 µM |
| ASTKPEKPPVVKKP [INP52 peptide …] | > 100 µM |

Now for the binder whose Kd we want.
Data request: # query: Kd of entry RPLPQLPNRNNRPV [LAS17 peptide …]
Data returned: > 100 µM
